# System: Saccharomyces cerevisiae;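 also: PSI is a weighted mean of sequencing reads over stability bins, variants kept only with over 10 reads, mCherry proximal and sfGFP distal, peptide attached via GGGS linker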
# procedure.summary: protein stability index of tFT-peptide fusion (C-terminal peptide) (PSI (0-1 scale)); higher = more stable (slower turnover)
# applied.conditions: genetic background: das1 deletion; temperature: 30 C
experimental.endpoint: protein stability index
The reply should be a number, written without any unit.

Below: 2 sequences and their reported protein stability index.
INSERT INTO measurements (entry_sequence, experimental_endpoint, measurement) VALUES
  ('IFVLLSYYPLFV', 'protein stability index', 0.265),
  ('LPLQPPPPVCLP', 'protein stability index', 0.629);

Using the record for SRDSLLTLIPSC , report its protein stability index.
0.619

Using the record for LVCLVFVRSSLV , report its protein stability index.
0.25

Using the record for ISVSVVFFVLRF , report its protein stability index.
0.265

Using the record for LSFFICSFFFVL , report its protein stability index.
0.456

Using the record for PSFSLLRSLTLI , report its protein stability index.
0.671

Using the record for LTCTSTPMACRV , report its protein stability index.
0.443

Using the record for CVFCRVAVGVDG , report its protein stability index.
0.438
